Target: soybean 15-lipoxygenase (SLO; L1; Type I-B; EC 1,13,11,12) (Glycine max)
Construct: purchased Sigma Co
Assay: SLO enzyme inhibition, peroxide-formation method (substrate linoleic acid)
Format: biochemical
Method: LA, enzyme and two assay solutions (A and B) were firstly prepared as follow: LA solution: A mixture of LA (5.6 mg), ethanol (0.5 ml) and KOH (100 mM) to a final volume of 5 ml (6). The enzyme solution was prepared by dissolving 1 mg lyophilized SLO (L1; Type I-B; EC 1, 13, 11, 12; Sigma Co.) in 5 ml phosphate buffer (50 mM, pH 7.0) and then its activity was checked by diene formation method at 234 nm. Finally, its activity was decreased to desired quantity by dilution with the phosphate buffer. […]
Measured Property: pIC50
# log scale: pIC50 equals minus log10 of the concentration in mol/L

The measured pIC50 associated with C=CCc1cc(NC(=O)C23CC4CC(CC(C4)C2)C3)ccc1OC(C)C [Compound 6f] reads 5.87

---

Listed below: melting point values for each entry.

Worked cases, melting point given:
> print(dat)
                                   compound         result
1        C=CCc1cc(NC(=O)C2CCCCC2)ccc1OC(C)C    93 to 95 °C
2  C=CCc1cc(NC(=O)c2ccccc2)ccc1OC(C)C [Compound 6e, N-(3-allyl-4-isopropoxyphenyl) benzamide]  128 to 130 °C
3         C=CCc1cc(NC(=O)C2CCCC2)ccc1OC(C)C    88 to 89 °C
4           C=CCc1cc(NC(=O)C2CC2)ccc1OC(C)C    78 to 79 °C

Now for the compound whose melting point we want.
The measured melting point associated with `C=CCc1cc(NC(=O)C2CCC2)ccc1OC(C)C` reads 81 to 83 °C

---

Listed below: pIC50 values for each entry.
Molecular target: soybean 15-lipoxygenase (SLO; L1; Type I-B; EC 1,13,11,12) (Glycine max)
Construct: purchased Sigma Co
Test: SLO enzyme inhibition, peroxide-formation method (substrate linoleic acid)
Type: biochemical
Conditions: substrate linoleic acid; phosphate buffer pH 7.0; absorbance 598 nm; triplicate; read-out: IC50 (SLO inhibition)
Description: LA, enzyme and two assay solutions (A and B) were firstly prepared as follow: LA solution: A mixture of LA (5.6 mg), ethanol (0.5 ml) and KOH (100 mM) to a final volume of 5 ml (6). The enzyme solution was prepared by dissolving 1 mg lyophilized SLO (L1; Type I-B; EC 1, 13, 11, 12; Sigma Co.) in 5 ml phosphate buffer (50 mM, pH 7.0) and then its activity was checked by diene formation method at 234 nm. Finally, its activity was decreased to desired quantity by dilution with the phosphate buffer. […]
# log scale: pIC50 equals minus log10 of the concentration in mol/L

Worked cases, pIC50 given:
> print(dat)
                                   compound  numeric.value
1  C=CCc1cc(NC(=O)C2CCC2)ccc1OC(C)C [Compound 6b]           4.60
2  C=CCc1cc(NC(=O)C2CCCCC2)ccc1OC(C)C [Compound 6d]           5.45

The measured pIC50 associated with C=CCc1cc(NC(=O)C2CCCC2)ccc1OC(C)C [Compound 6c] reads 5.03

The measured pIC50 associated with C=CCc1cc(NC(=O)C2CC2)ccc1OC(C)C [Compound 6a] reads 4.34
